target: Caspase-8 (Homo sapiens, UniProt Q14790); construct: mixing the compounds with the respective active caspases; purchased BioVision K158-100; assay: Caspase-8 inhibitor screening assay (BioVision kit, IETD-AFC); format: biochemical; settings: 100 uM; read-out: % Inhibition at 100 uM Casp8
Sequence (Q14790 217-374 limits assumed): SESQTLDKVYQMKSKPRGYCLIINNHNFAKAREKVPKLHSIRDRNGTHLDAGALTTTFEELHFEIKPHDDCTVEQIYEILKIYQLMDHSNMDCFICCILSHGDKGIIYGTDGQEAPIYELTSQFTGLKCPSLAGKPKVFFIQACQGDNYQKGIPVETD
Sequence (Q14790 385-479 limits assumed): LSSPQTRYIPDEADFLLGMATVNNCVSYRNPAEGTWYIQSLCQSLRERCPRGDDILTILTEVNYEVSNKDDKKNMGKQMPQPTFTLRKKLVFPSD
Structures can show the parent of a compound that is named as a salt.
reported property: inhibition at 100 µM (%)

Field: example entries. Status: answers known.
CCC(C)[C@H](NC(=O)[C@H](CCC(=O)O)NC(=O)[C@@H](NC(=O)OCc1ccccc1)C(C)C)C(=O)N[C@H](/C=C/S(C)(=O)=O)CC(=O)O (stereo partly drawn) | 100
CC(C)(C)[C@H](NC(=O)c1ccc2ncccc2c1)C(=O)N1CCCC1C(=O)N[C@H](/C=C/S(C)(=O)=O)CC(=O)O (stereo in doubt) | 94
CCOC(=O)/C=C/[C@H](CC(=O)O)NC(=O)[C@H]1CCCN1C(=O)[C@@H](NC(=O)c1ccc2ccccc2n1)C(C)(C)C | 89

a. CCOC(=O)/C=C/[C@H](CC(=O)O)NC(=O)[C@@H](NC(=O)[C@@H](NC(=O)[C@H](CC(=O)O)NC(=O)OCc1ccccc1)c1ccccc1)C(C)C
b. CS(=O)(=O)/C=C/[C@H](CC(=O)O)NC(=O)[C@@H](N)CCC(=O)O
c. CC(C)(C)[C@H](NC(=O)c1ccc2ccccc2n1)C(=O)N1CCC[C@@H]1C(=O)N[C@H](/C=C/S(C)(=O)=O)CC(=O)O
d. CC(C)[C@H](NC(=O)c1ccc2ccccc2n1)C(=O)N[C@H](/C=C/S(C)(=O)=O)CC(=O)O
Task: Arrange these compounds by their inhibition at 100 µM, starting with the largest number. Present the labels in the sequence the task asks for.
Output: a, c, d, b

1. CCOC(=O)/C=C/[C@@H](N)CC(=O)O [Compound 44, Asp ethyl vinyl ester tosyl salt]
2. CC(C)(C)[C@H](NC(=O)c1ccc2ncccc2n1)C(=O)N1CCCC1C(=O)N[C@H](/C=C/S(C)(=O)=O)CC(=O)O (stereo in doubt)
Task: Which is greater in inhibition at 100 µM, the first item 1 or the second item 2 ? // output: label of the selected item
Output: 2
